Details: proprietary brimonidine composition
measured attribute: Stabilization of chlorine dioxide by the excipient (in words)

Given the molecule NCCN [Ethylene diamine] , what is its reported Stabilization of chlorine dioxide by the excipient (in words)? do not stabilize

Then CC(=O)C(=O)[O-].[Na+] [Sodium Pyruvate] ? similarly ineffective

Then O=C(O)CN(CCN(CC(=O)O)CC(=O)O)CC(=O)O [EDTA] ? do not stabilize

Then O=C([O-])C(=O)[O-].[Na+].[Na+] [Sodium Oxalate] ? similarly ineffective

###

Recorded measurements of Stabilized Chlorine Dioxide Concentration, one per entry
Settings: 0 Days; ingredient added to proprietary brimonidine composition
The reply should contain only the number, in ppm.

Use these answered entries as a reference point.
Given the compound CC(O)C(=O)[O-].[Na+] (centres unmarked) [Sodium Lactate] , what is its reported Stabilized Chlorine Dioxide Concentration? 45

Then O=C[O-].[Na+] [Sodium Formate] ? 42

Then O=C([O-])C(=O)[O-].[Na+].[Na+] [Sodium Oxalate] ? 39

Then O=C([O-])/C(O)=C(\O)C(=O)[O-].[Na+].[Na+] [Sodium Dihydroxyfurmarate] ? 37

Consider now this further compound.
Given the compound O=C(O)CN(CCN(CC(=O)O)CC(=O)O)CC(=O)O , what is its reported Stabilized Chlorine Dioxide Concentration? 44

###

Details: 14 Days; ingredient added to proprietary brimonidine composition
measured attribute: Stabilized Chlorine Dioxide Concentration (ppm)
The reply should contain only the number, in ppm.

Use these answered entries as a reference point.
Given the molecule O=C([O-])C(=O)[O-].[Na+].[Na+] [Sodium Oxalate] , what is its reported Stabilized Chlorine Dioxide Concentration? 35

Then O=C([O-])/C(O)=C(\O)C(=O)[O-].[Na+].[Na+] [Sodium Dihydroxyfurmarate] ? 0

Then O=C(O)CN(CCN(CC(=O)O)CC(=O)O)CC(=O)O ? 0

Then CC(O)C(=O)[O-].[Na+] (centres unmarked) [Sodium Lactate] ? 37

Consider now this further molecule.
Given the molecule O=C[O-].[Na+] [Sodium Formate] , what is its reported Stabilized Chlorine Dioxide Concentration? 36

###

Recorded measurements of Stabilized Chlorine Dioxide Concentration, one per entry
Conditions: 7 Days; ingredient added to proprietary brimonidine composition
The reply should contain only the number, in ppm.

Given the compound O=C(O)CN(CCN(CC(=O)O)CC(=O)O)CC(=O)O [EDTA] , what is its reported Stabilized Chlorine Dioxide Concentration? 2

Then CC(O)C(=O)[O-].[Na+] (centres unmarked) [Sodium Lactate] ? 40

Then O=C[O-].[Na+] [Sodium Formate] ? 40

Then O=C([O-])/C(O)=C(\O)C(=O)[O-].[Na+].[Na+] [Sodium Dihydroxyfurmarate] ? 13

Then O=C([O-])C(=O)[O-].[Na+].[Na+] [Sodium Oxalate] ? 38
